Molecular target: Plasma kallikrein (Homo sapiens)
Sequence (P03952 20-390 limits assumed): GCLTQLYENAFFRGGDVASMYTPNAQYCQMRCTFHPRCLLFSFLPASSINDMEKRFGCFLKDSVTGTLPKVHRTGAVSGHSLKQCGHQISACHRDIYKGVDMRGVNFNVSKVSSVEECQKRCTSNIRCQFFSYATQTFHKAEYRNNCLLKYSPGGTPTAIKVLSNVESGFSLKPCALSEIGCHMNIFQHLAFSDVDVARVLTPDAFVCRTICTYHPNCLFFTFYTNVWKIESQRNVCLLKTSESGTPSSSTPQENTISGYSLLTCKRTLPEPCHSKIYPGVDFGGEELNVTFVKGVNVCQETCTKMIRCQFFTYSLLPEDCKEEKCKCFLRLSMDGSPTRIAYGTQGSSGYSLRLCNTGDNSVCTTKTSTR
Sequence (P03952 391-638 limits assumed): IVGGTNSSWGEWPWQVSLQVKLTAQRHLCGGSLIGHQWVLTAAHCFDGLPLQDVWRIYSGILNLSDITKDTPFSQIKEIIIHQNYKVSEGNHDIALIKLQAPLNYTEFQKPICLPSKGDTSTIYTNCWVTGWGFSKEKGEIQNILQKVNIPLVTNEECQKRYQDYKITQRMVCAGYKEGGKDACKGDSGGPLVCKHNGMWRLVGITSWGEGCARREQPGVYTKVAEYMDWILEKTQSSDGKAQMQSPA
Experiment: Inhibitory Activity Assay: Example compounds were evaluated for inhibition of the human activated kallikrein enzyme in two formats of an assay employing a fluorogenic peptide substrate. In one assay format, the concentrations of reagents were as follows: 20 mM Tris pH 7.5, 1 mM EDTA, 150 mM sodium chloride, 0.1% PEG-400, 0.1% Triton X-100, 500 pM activated kallikrein enzyme, 300 uM Pro-Phe-Arg-7-amido-4-methylcoumarin substrate. Prior to reaction initiation with substrate, enzyme and inhibitors were preincubated for 30 min at RT. After initiation with substrate, reactions were incubated for 10 min at RT and fluorescence emission at 460 nm from 380 nm excitation measured with a microplate reader. In another assay format, the concentrations of reagents were as follows: 20 mM Tris pH 7.5, 1 mM EDTA, 150 mM sodium chloride, 0.1% PEG-400, 0.1% Triton X-100, 5 pM activated kallikrein enzyme, 300 uM Pro-Phe-Arg-7-amido-4-methylcoumarin substrate. Prior to reaction initiation with substrate, enzyme and inhibitors were preincubated for 30 min at RT. After initiation with substrate, reactions were incubated for 18 h at RT and fluorescence emission at 460 nm from 380 nm excitation measured with a microplate reader.
pEC50: −log10 of the molar value.
reported-metric: pEC50

INSERT INTO assay_data (cpd_smiles, observed) VALUES
  ('O=C(NCc1ncn2ccc(Cl)cc12)c1cnn(Cc2cc3cc(C4CC4)ccn3n2)c1', '> 9.00');

Where do the numbers come from? From ChEMBL document CHEMBL5729147.
